- Test system: human PKA catalytic subunit C-alpha mRNA
- method description: Inhibition of PKA catalytic subunit C-alpha mRNA levels in oligonucleotide-treated cells, quantitative real-time PCR
- Format: cell-based
- Design: concentration or dose not given beside the values
- test conditions: Table 2, chimeric phosphorothioate 2'-MOE gapmers, averaged from two experiments
observation type: % Inhibition of PKA catalytic subunit C-alpha mRNA levels (%)
Lab book: enter the figure in %, no units written.

The examples below pair each entry with its known result.
substance	recorded value
102688 (antisense TCTGCGAAGAAGGGCGGGTA; chemistry not given here) [compound 102688]	52
102692 (antisense TCCTTCAAGTCAGAGCTGAA; chemistry not given here) [compound 102692]	67
102609 (antisense CATCGCGGCGGCGGCGGCCG; chemistry not given here) [compound 102609]	66
102624 (antisense GTTGCCCATCGCGGCGGCGG; chemistry not given here) [compound 102624]	81
102684 (antisense GCGGCCCTTCACGCGCTTGG; chemistry not given here) [compound 102684]	63

What does the data say about its % Inhibition of PKA catalytic subunit C-alpha mRNA levels? Entry: 102660 (antisense CCAGCATCACCCGCCCGAAG; chemistry not given here) [compound 102660]
82

And 102645 (antisense CGGCGGCGGCGTTGCCCATC; chemistry not given here) [compound 102645] ?
84

And 102668 (antisense GCTTGCAGGATGCGCTTTTC; chemistry not given here) [compound 102668] ?
76

And 102716 (antisense AAGCAACCCACTGAACATGT; chemistry not given here) [compound 102716] ?
63

And 102619 (antisense TGCCCATCGCGGCGGCGGCG; chemistry not given here) [compound 102619] ?
70

And 102741 (antisense AGCACAAATGAGAAAGTGGG; chemistry not given here) [compound 102741] ?
53

* * *

- Test system: human PKA catalytic subunit C-alpha mRNA
- method description: Inhibition of PKA catalytic subunit C-alpha mRNA levels in oligonucleotide-treated cells, quantitative real-time PCR
- Format: cell-based
- Design: concentration or dose not given beside the values
- test conditions: Table 2, chimeric phosphorothioate 2'-MOE gapmers, averaged from two experiments
observation type: % Inhibition of PKA catalytic subunit C-alpha mRNA levels (%)
Lab book: enter the figure in %, no units written.

The examples below pair each entry with its known result.
substance	recorded value
102636 (antisense GGCGGCGTTGCCCATCGCGG; chemistry not given here) [compound 102636]	41
102657 (antisense CAAACTGATCCAAGTGGGCT; chemistry not given here) [compound 102657]	73
102629 (antisense GCGTTGCCCATCGCGGCGGC; chemistry not given here) [compound 102629]	79

Query substance follows.
# get_value(readout= % Inhibition of PKA catalytic subunit C-alpha mRNA levels, system= human PKA catalytic subunit C-alpha mRNA) for 102649 (antisense GGCGGCGGCGGCGTTGCCCA; chemistry not given here) [compound 102649]
85

* * *

Reported % Inhibition of PKA catalytic subunit C-alpha mRNA levels values are given for each entry in this list.
- Tested on: human PKA catalytic subunit C-alpha mRNA
- method description: Inhibition of PKA catalytic subunit C-alpha mRNA levels in oligonucleotide-treated cells, quantitative real-time PCR
- Type: cell-based
- Set-up: concentration or dose not given beside the values
- test conditions: Table 2, chimeric phosphorothioate 2'-MOE gapmers, averaged from two experiments
Lab book: enter the figure in %, no units written.

substance	recorded value
102727 (antisense CGCTGCTGGGAGGAAAGACT; chemistry not given here) [compound 102727]	60

What does the data say about its % Inhibition of PKA catalytic subunit C-alpha mRNA levels? Entry: 102640 (antisense GCGGCGGCGTTGCCCATCGC; chemistry not given here) [compound 102640]
87

And 102724 (antisense ACCCTCGCAGGATTGGCAGA; chemistry not given here) [compound 102724] ?
55

And 102703 (antisense GGCATGCCCCTAAAACTCAG; chemistry not given here) [compound 102703] ?
26

* * *

- Tested on: human PKA catalytic subunit C-alpha mRNA
- method description: Inhibition of PKA catalytic subunit C-alpha mRNA levels in oligonucleotide-treated cells, quantitative real-time PCR
- Type: cell-based
- Design: concentration or dose not given beside the values
- test conditions: Table 1, phosphorothioate oligodeoxynucleotides, averages from two experiments
Reported % Inhibition of PKA catalytic subunit C-alpha mRNA levels values are given for each entry in this list.
Lab book: enter the figure in %, no units written.

The examples below pair each entry with its known result.
substance	recorded value
102579 (antisense TGGCTCCCCAGCGGCTCCCC; chemistry not given here) [compound 102579]	36
102450 (antisense GCGTTGCCCATCGCGGCGGC; chemistry not given here) [compound 102450]	64
102482 (antisense CCAGCATCACCCGCCCGAAG; chemistry not given here) [compound 102482]	66
102522 (antisense CTTCCTCATAGTCGTCAAAG; chemistry not given here) [compound 102522]	32
102514 (antisense TCCTTCAAGTCAGAGCTGAA; chemistry not given here) [compound 102514]	44
102534 (antisense TTGGCGCTTCGTTCATTTGC; chemistry not given here) [compound 102534]	39
102442 (antisense CATCGCGGCGGCGGCGGCCG; chemistry not given here) [compound 102442]	49
102440 (antisense TCGCGGCGGCGGCGGCCGGG; chemistry not given here) [compound 102440]	19
102510 (antisense TCTGCGAAGAAGGGCGGGTA; chemistry not given here) [compound 102510]	0
102543 (antisense GCTTCTCTTTAAAATGGATT; chemistry not given here) [compound 102543]	16

What does the data say about its % Inhibition of PKA catalytic subunit C-alpha mRNA levels? Entry: 102446 (antisense TGCCCATCGCGGCGGCGGCG; chemistry not given here) [compound 102446]
29

And 102558 (antisense TGCAGGGATGCCCTCCCCAC; chemistry not given here) [compound 102558] ?
65

And 102547 (antisense ACCCTCGCAGGATTGGCAGA; chemistry not given here) [compound 102547] ?
53

And 102538 (antisense AAGCAACCCACTGAACATGT; chemistry not given here) [compound 102538] ?
38

And 102568 (antisense CAGGCAGCCCCTCCCCAGCA; chemistry not given here) [compound 102568] ?
49

And 102438 (antisense GCGGCGGGTGCTGGCTGCGG; chemistry not given here) [compound 102438] ?
15

And 102553 (antisense CGCTGCTGGGAGGAAAGACT; chemistry not given here) [compound 102553] ?
52

And 102454 (antisense CGGCGTTGCCCATCGCGGCG; chemistry not given here) [compound 102454] ?
53

And 102448 (antisense GTTGCCCATCGCGGCGGCGG; chemistry not given here) [compound 102448] ?
47

And 102458 (antisense GGCGGCGTTGCCCATCGCGG; chemistry not given here) [compound 102458] ?
69

And 102498 (antisense GAACATCTCCCCGCCGGGCA; chemistry not given here) [compound 102498] ?
13

And 102530 (antisense GGAGCAGCTGGTGTTTCTGT; chemistry not given here) [compound 102530] ?
39

And 102506 (antisense GCGGCCCTTCACGCGCTTGG; chemistry not given here) [compound 102506] ?
0

And 102462 (antisense GCGGCGGCGTTGCCCATCGC; chemistry not given here) [compound 102462] ?
67

And 102444 (antisense CCCATCGCGGCGGCGGCGGC; chemistry not given here) [compound 102444] ?
47

And 102518 (antisense AAACCACTTGTGGTTCTTGA; chemistry not given here) [compound 102518] ?
34

And 102573 (antisense AGCACAAATGAGAAAGTGGG; chemistry not given here) [compound 102573] ?
7

And 102502 (antisense TAGATGAGATCCAGCGAGTG; chemistry not given here) [compound 102502] ?
28

* * *

- Tested on: human PKA catalytic subunit C-alpha mRNA
- method description: Inhibition of PKA catalytic subunit C-alpha mRNA levels in oligonucleotide-treated cells, quantitative real-time PCR
- Format: cell-based
- Design: concentration or dose not given beside the values
- test conditions: Table 1, phosphorothioate oligodeoxynucleotides, averages from two experiments
Lab note: cut-off is 50%. Strictly less in % Inhibition of PKA catalytic subunit C-alpha mRNA levels is Fulfilled. Exactly 50% or more is Not fulfilled.

Record excerpt, results attached:
substance	label class
102466 (antisense CGGCGGCGGCGTTGCCCATC; chemistry not given here) [compound 102466]	Not fulfilled
102526 (antisense GGCATGCCCCTAAAACTCAG; chemistry not given here) [compound 102526]	Fulfilled
102490 (antisense GCTTGCAGGATGCGCTTTTC; chemistry not given here) [compound 102490]	Not fulfilled
102589 (antisense TAGTTTTCAAATATGTTTAC; chemistry not given here) [compound 102589]	Fulfilled
102478 (antisense CAAACTGATCCAAGTGGGCT; chemistry not given here) [compound 102478]	Not fulfilled

For 102494 (antisense GTTGTCCTTGAAGGAGAACT; chemistry not given here) [compound 102494] , is the recorded % Inhibition of PKA catalytic subunit C-alpha mRNA levels below the cut-off of 50%?
Fulfilled
